biological target: papain (Carica papaya); construct: purchased Sigma Chem. Co; experiment: Papain inhibitory activity (method of K. Hanada et al.); assay type: biochemical; conditions: papain 80 μg/ml, Sigma, twice crystallized
Sequence (P00784 134-345): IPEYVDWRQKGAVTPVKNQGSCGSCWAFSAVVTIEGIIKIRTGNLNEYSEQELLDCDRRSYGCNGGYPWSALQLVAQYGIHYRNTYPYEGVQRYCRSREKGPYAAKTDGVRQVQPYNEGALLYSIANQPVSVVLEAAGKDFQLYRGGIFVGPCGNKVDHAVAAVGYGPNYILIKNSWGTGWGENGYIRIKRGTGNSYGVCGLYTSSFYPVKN
Outcome: MET for Papain inhibitory activity ID50 (amount of inhibitor for 50% inhibition) of at least 0.2 µg; NOT MET for anything lower.

Consider the following illustrative entries.
> print(dat)
                                   compound  assigned.label
1  CC(C)C[C@H](NC(=O)C1OC1C(=O)O)C(=O)NCCCCNC(=O)OCc1ccccc1 (mixture of isomers)         NOT MET
2  CC(C)C[C@H](NC(=O)C1OC1C(=O)OC1CCCCC1)C(=O)NCCCCNC(=O)OCc1ccccc1 (mixture of isomers)         NOT MET
3  CC(C)C[C@H](NC(=O)C1OC1C(=O)OC1CCCC1)C(=O)NCCCCNC(=O)OCc1ccccc1 (mixture of isomers)         NOT MET

Quick check: does CC(=O)NCCCCNC(=O)[C@H](CC(C)C)NC(=O)C1OC1C(=O)OCc1ccccc1 (mixture of isomers) have Papain inhibitory activity ID50 (amount of inhibitor for 50% inhibition) greater than or equal to 0.2 µg? NOT MET

// repeat for CC(C)C[C@H](NC(=O)C1OC1C(=O)OCc1ccccc1)C(=O)NCCCCCNC(=O)OCc1ccccc1 (mixture of isomers) and report MET

Next up: CC(C)C[C@H](NC(=O)C1OC1C(=O)OCc1ccccc1)C(=O)NCCCCNC(=O)OCc1ccccc1 (mixture of isomers) MET

Input CC(C)[C@H](NC(=O)C1OC1C(=O)OCc1ccccc1)C(=O)NCCCCNC(=O)OCc1ccccc1 (mixture of isomers) MET

Now consider CC(C)C[C@H](NC(=O)C1OC1C(=O)O)C(=O)NCCCCN (mixture of isomers) . NOT MET

What do you get for CC[C@H](C)[C@H](NC(=O)C1OC1C(=O)OCc1ccccc1)C(=O)NCCCCNC(=O)OCc1ccccc1 (mixture of isomers) ? MET

CC(C)C[C@H](NC(=O)C1OC1C(=O)OCc1ccccc1)C(=O)NCCCCCCCNC(=O)OCc1ccccc1 (mixture of isomers) ? MET

Another: CC(C)C[C@H](NC(=O)C1OC1C(=O)OCc1ccccc1)C(=O)NCCCCNC(=O)c1ccccc1 (mixture of isomers) NOT MET

====

experiment: Concentration in rat plasma after subcutaneous administration; assay type: in vivo; details: sc, rats, 50 mg/kg, an hour after administration
Criterion: concentration at 1 h strictly under 2000 ng/mL. Met: yes. Not met: no.

Below are worked cases with known answers.
> print(dat)
                                   compound  assigned.label
1  CC(C)C[C@H](NC(=O)C1OC1C(=O)OCc1ccccc1)C(=O)NCCCCCNC(=O)OCc1ccccc1 (mixture of isomers)             yes
2  CC(C)C[C@H](NC(=O)C1OC1C(=O)O)C(=O)NCCCCNC(=O)OCc1ccccc1 (mixture of isomers)              no

concentration at 1 h strictly < 2000 ng/mL for this compound? CC(C)[C@H](NC(=O)C1OC1C(=O)OCc1ccccc1)C(=O)NCCCCNC(=O)OCc1ccccc1 (mixture of isomers) yes

And CC(C)C[C@H](NC(=O)C1OC1C(=O)OCc1ccccc1)C(=O)NCCCCNC(=O)OCc1ccccc1 (mixture of isomers) ? yes

Would you mind doing CC(=O)NCCCCNC(=O)[C@H](CC(C)C)NC(=O)C1OC1C(=O)OCc1ccccc1 (mixture of isomers) as well? yes

Cited source for all entries: patent US4474800A
